- system.name: T1, IBV nsp9 wild-type (avian infectious bronchitis virus (IBV) …, UniProt P0C6Y3 3675-3785)
- T1 sequence: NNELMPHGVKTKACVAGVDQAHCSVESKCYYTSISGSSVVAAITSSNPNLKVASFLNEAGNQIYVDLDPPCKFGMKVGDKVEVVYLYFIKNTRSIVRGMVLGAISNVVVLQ
- method.notes: BLI
experimental.readout: Kd (µM)
Give the value, in units of µM, as a plain number.

Given item CGACUCAUGGACCUUGGCAG (ssRNA, phosphorothioate linkages at last two 3' residues (A19, G20)) [20-mer RNA, biotin (BLI)] , the value recorded as its Kd is 28
